B1: KRT34 (parent)
chain: PTVDLNQVLNETRSQYEALVETNR

Variants of: B1
test name: protein stability index of a GFP-peptide fusion (GPS, HEK-293T) (PSI 1-6); higher = more stable;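 note: lentivirally expressed fusions sorted by FACS into six bins by GFP to DsRed ratio, PSI derived from sequencing read proportions per bin multiplied by bin number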
recorded conditions: c terminus: a fixed tail appended
endpoint label: protein stability index
Just the number, please, no unit attached.

Some variants with recorded protein stability index:
V8C : 3.48
E17S : 3.85
N10Q : 2.5
V20R : 4.9
P1L : 2.88

Hello, please tell me recorded protein stability index for this one: `V8N`
4.58

Hello, please tell me recorded protein stability index for this one: `E21V`
3.49

Hello, please tell me recorded protein stability index for this one: `L19C`
4.72

Hello, please tell me recorded protein stability index for this one: `Q15N`
4.02

Hello, please tell me recorded protein stability index for this one: `L9A`
4.09

Hello, please tell me recorded protein stability index for this one: `S14A`
2.09

Hello, please tell me recorded protein stability index for this one: `T22S`
4.36
